tested on: Staphylococcus aureus; test: Antibacterial activity against Staphylococcus aureus ATCC 25923 after 24 hrs by two-fold serial dilution assay; type: functional
Label MET when MIC < 70 µM; otherwise NOT MET.

COc1cc(-c2nc3ccccc3n2Cc2ccc(F)cc2)c2c(c1O)CN1CCc3cc4c(cc3C1C2)OCO4.Cl (stereo unspecified) ... NOT MET

Q: Consider COc1cc(-c2nc3ccccc3n2Cc2ccc(Cl)cc2)c2c(c1O)CN1CCc3cc4c(cc3C1C2)OCO4.Cl (stereo unspecified) . Does its MIC lie strictly below 70 µM?
A: NOT MET

Q: Consider COc1cc(-c2nc3ccccc3n2CCCCCCn2c3ccccc3c3ccccc32)c2c(c1O)CN1CCc3cc4c(cc3C1C2)OCO4.Cl (stereo unspecified) . Does its MIC lie strictly below 70 µM?
A: NOT MET

Q: Consider COc1cc(-c2nc3ccccc3n2Cc2ccc(Cl)cc2)c2c(c1O)CN1CCc3cc4c(cc3C1C2)OCO4 (stereo unspecified) . Does its MIC lie strictly below 70 µM?
A: MET

Q: Consider COc1cc(-c2nc3ccccc3n2Cc2ccccc2F)c2c(c1O)CN1CCc3cc4c(cc3C1C2)OCO4 (stereo unspecified) . Does its MIC lie strictly below 70 µM?
A: MET
